B1: tRNA (parent)
chain: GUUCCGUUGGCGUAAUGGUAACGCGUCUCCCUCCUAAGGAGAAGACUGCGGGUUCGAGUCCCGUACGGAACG

# Variants of: B1
# method summary: yeast fitness relative to wild type (ratio to wild type); higher = fitter; tRNA-Arg(CCU), competitive growth, 37 C, YPD
This sample holds only a part of the variants without activity.
Classification field: enter Condition met for yeast fitness values not below 0.6, Condition not met for values below it.

Before answering, review these 4 worked examples.
[
  {
    "sequence text": "GUUCCGUUGGCGUAAUGGUAACGGGUCUCGCUCGUAAGGAGAAGACUGCGGGUUCGAGUCCCGUACGGAGCG [C24G C30G C34G A70G]",
    "class": "Condition not met"
  },
  {
    "sequence text": "GUUCCGUUAGCGUCAUGGUAAGGCGUCUCCCUCCUAAGGAGAAGACUGCGGGUCCGAGUCCCGUAUGGAACG [G9A A14C C22G U54C C66U]",
    "class": "Condition not met"
  },
  {
    "sequence text": "GUUCCGUGGGCGUAAUGGUAUCGCGUCUCCCUCCUAAGGAGAAGACUGCGGGUUCGAGUCCCGUACGCAACG [U8G A21U G68C]",
    "class": "Condition not met"
  },
  {
    "sequence text": "GUUCCGUUGGCGUAAUGGUAACGCUUCUCCCUCCUAAGGAGAAGACUGCGGGUUCGAGUGCCGUACGGAACG [G25U C60G]",
    "class": "Condition not met"
  }
]

Problem: hey, is yeast fitness for this one >= 0.6? GUUCCGUUGGCGUAAUGGGAACGCGUCUCCCUCAUAAGGAGAAGACUGCGGGUUCGAGUCCCGUACGGAACG [U19G C34A]
Solution: Condition met

Problem: Record GUUCCGUUGGCGUAAUGGUAAUGCAGCUCCCUCCUAAGGAGAAGACUGCGGGUUCGAGUCCUGUUCGGAACG [C22U G25A U26G C62U A65U] ; criterion: yeast fitness no lower than 0.6. Met?
Solution: Condition not met

Problem: # bool: yeast fitness of GUUCCGUUGGCGUAAUGGUAACGCGUCUCCCUCCUAAGGAGACGACUGCGGGUUCGAGUCCCUUACGGAACG [A43C G63U] >= 0.6
Solution: Condition met

Problem: Has GUUCUGUUGGCGUAAUGGUAACGCGUCUCCCCCCCAAGGAGAAGACUGGGGGUUCGAGUCCCGUACGGAACG [C5U U32C U35C C49G] a recorded yeast fitness greater than or equal to 0.6?
Solution: Condition not met

Problem: hey, is yeast fitness for this one >= 0.6? GUUCCGUUGGCGUAAUGGUAAAGCGUCUCCCUCCUAAGGAGAAGACUGCGGGUUCGAGUCCCGUACGUAACG [C22A G68U]
Solution: Condition met

Problem: Hi, just wondering whether GUUCCGUUCGCGUAAUGGUAACGCGUCUUCCUCCUAAGGAGAAGACUGCGGGUUCGAGUCCCGUACGGACCG [G9C C29U A70C] shows yeast fitness of 0.6 or higher.
Solution: Condition not met

Problem: Does yeast fitness meet or surpass 0.6 for GUUCCGUUCGCGUAAUGGUAACGGGUCUCCCUCCUAAGGAGAAGACUGUGGGUUCGAGUCCCGUCCGGAACG [G9C C24G C49U A65C] ?
Solution: Condition not met

Problem: Kindly determine if yeast fitness recorded for GUUCCGUUGGCGUAAUGGUAACACAUCUCCUUCCUAAGGAGAAGACUGCGGGUUCGAGUCCCGUACGGAACG [G23A G25A C31U] is above or exactly 0.6.
Solution: Condition met

Problem: Threshold query (yeast fitness >= 0.6) on GUUCCGUUGGCAUAAUGGUAACGCGUCUCCCUCCCAAGGAAAAGACUGCGCGUUCGAGUCCCGUACGGAACG [G12A U35C G41A G51C]
Solution: Condition not met

Problem: Quick check: does GUUUCGUUGGCGUAAUGGUAACGCGUCUCCUUCCUACGGAGAAGACUGCGGGUUCGAGUCCCGUACGGAACG [C4U C31U A37C] have yeast fitness greater than or equal to 0.6?
Solution: Condition not met

Problem: Say whether GUUCCGUUGGCGUAAUGGUAACGCGUCUACCUCCCAAGGAGAAGACUGCGGGUUCGAGUCCCGUAUGGAACG [C29A U35C C66U] shows yeast fitness of 0.6 or more.
Solution: Condition not met

Reference source for all entries: the RNAGym collection of RNA variant scans (doi:10.1126/science.aae0568)
